biological target: Trace amine-associated receptor 1 (Homo sapiens) (UniProt Q96RJ0); experiment: activators of TAAR1 calcium signal, triplicate retest – Fluo-8 calcium fluorescence, CHO RD-HGA16 cells, confirmation (AID 651783); conditions: CHO RD-HGA16 TAAR1, Fluo-8 calcium fluorescence; at 3 µM; scaled: DMSO 0%, maximal phenethylamine 100%;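 note: promiscuous G-alpha-16 overexpression reroutes TAAR1 signalling from cAMP to calcium; peak fluorescence divided by basal pre-compound fluorescence per well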
Sequence (Q96RJ0 whole entry, looked up): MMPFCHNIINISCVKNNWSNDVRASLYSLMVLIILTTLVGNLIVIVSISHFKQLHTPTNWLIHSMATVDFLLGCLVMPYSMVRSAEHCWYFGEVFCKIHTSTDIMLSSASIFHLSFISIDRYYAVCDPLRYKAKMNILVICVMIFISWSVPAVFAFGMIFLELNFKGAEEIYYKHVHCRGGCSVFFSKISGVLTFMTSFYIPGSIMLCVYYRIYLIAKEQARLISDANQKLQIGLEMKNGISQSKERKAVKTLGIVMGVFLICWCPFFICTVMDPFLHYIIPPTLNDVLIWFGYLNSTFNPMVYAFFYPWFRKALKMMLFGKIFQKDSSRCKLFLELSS
Out of some 2,400 compounds screened, about 2,000 (83%) were called active.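 Rule for the calls: active = activation above a cutoff set at the run's mean compound activation plus 3 SD (cut at about 39% in these data); inactive = the rest.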 So high a share suggests a set chosen from earlier hits. A selection follows.
Write down one outcome, taken from t = active, f = inactive

So what was the verdict on Cc1cccc(NC(=O)C(C)N2C(=O)C3C4CC(C(Br)C4Br)C3C2=O)c1 (stereo not drawn) in this test?
f

So what was the verdict on `CN(C)c1ccc(/C=C2\NC(=S)N(Cc3ccccc3)C2=O)cc1` in this test?
t

So what was the verdict on `O=C(Nc1ccncc1)Nc1ccc(F)cc1` in this test?
t

So what was the verdict on `Cc1cc2nc3c(=O)[nH]c(=O)nc-3n(C[C@H](O)[C@H](O)[C@H](O)CO)c2cc1C` in this test?
t

So what was the verdict on S=C(NCCc1ccccc1)N1CCn2cccc2C1c1ccncc1 (stereo not drawn) in this test?
t

So what was the verdict on `C[C@H](NC(=O)c1ccccc1)C(=O)OCC(=O)c1c[nH]c2ccccc12` in this test?
t

So what was the verdict on `CCCCOc1ccc(CSC(=N)N)cc1[N+](=O)[O-]` in this test?
t

So what was the verdict on `NC(=O)C1=C[C@H](c2csc3ccccc23)C[C@H](OCc2ccc(CO)cc2)O1` in this test?
t

So what was the verdict on `O=C(Nc1ccccc1)Nc1nnc(COc2ccccc2F)s1` in this test?
t

So what was the verdict on `CCCCCc1c(-c2cccc(Br)c2)ncn1CCc1ccccc1OC` in this test?
t

So what was the verdict on `Cc1ccc(NC(=O)CCN2CCc3ccccc3C2)cc1` in this test?
t

So what was the verdict on `CCCCCc1c(Cc2ccccc2)ncn1CCc1ccccc1OC` in this test?
t

So what was the verdict on OC(CNCCc1ccc(Cl)cc1Cl)COc1ccccc1 (stereo not drawn) in this test?
t

So what was the verdict on `O=c1cnnc(Nc2ccccc2)[nH]1` in this test?
t

So what was the verdict on `CCCSc1nc2c(c(=O)n(C)c(=O)n2C)n1Cc1ccc(C)cc1` in this test?
t

So what was the verdict on `Oc1ccc2ccc3cccc[n+]3c2c1` in this test?
t

So what was the verdict on `COC(=O)c1[nH]c2cccc(C)c2c1NC(=O)CN1CCCc2ccccc21` in this test?
t

So what was the verdict on `O=C(CCCN=C1NS(=O)(=O)c2ccccc21)OCC(=O)c1ccc(F)c(F)c1` in this test?
t

So what was the verdict on `O=C1CCCC(O)=C1C=NCCc1ccccc1` in this test?
t

So what was the verdict on `O=C(N[C@H](C(=O)N1CCC[C@H]1C(=O)NCCc1ccccc1Cl)c1ccccc1)c1ccccc1` in this test?
t

So what was the verdict on `CCCCCc1c(-c2ccc(OC)c(OC)c2)ncn1CCc1ccccc1OC` in this test?
t

So what was the verdict on `O=C(NNC(=S)NC(=O)c1cn(-c2ccccc2)nc1-c1ccccc1)c1ccncc1` in this test?
t

So what was the verdict on `COc1ccc2cc(-c3[nH]ncc3CNCCn3nc(C)cc3C)ccc2c1` in this test?
t
